Tested on: S. enterica typhimurium tolC KO
method description: growth AUC normalised to DMSO control (median) (fraction of control); higher = less growth inhibition, active = hit call of the paper
experimental context: 20 µM
Where a name gives a salt, the structure may show the parent alone.
Readings of growth AUC normalised to DMSO control for the listed compounds
Just the number.

For orientation, consider the following solved cases.
>>> value_observed("N=C(N)NS(=O)(=O)c1ccc(N)cc1 [Sulfaguanidine]")
1
>>> value_observed("CN/C(=N\\CCSCc1nc[nH]c1C)NC#N [Cimetidine]")
0.996

Query block: Report growth AUC normalised to DMSO control for C#C[C@]1(O)CC[C@H]2[C@@H]3CCC4=CC(=O)CC[C@@H]4[C@H]3CC[C@@]21C [Norethindrone] please.
Result block: 0.993

Query block: Also CCCC(=O)N1CCCN(c2nc(N)c3cc(OC)c(OC)cc3n2)CC1 [Bunazosin hydrochloride] ?
Result block: 0.994

Query block: Also COc1ccccc1N1CCN(CCCNc2cc(=O)n(C)c(=O)n2C)CC1 [Urapidil hydrochloride] ?
Result block: 0.992

Query block: Also Nc1nc(=S)c2ncn([C@@H]3O[C@H](CO)[C@@H](O)[C@H]3O)c2[nH]1 [Thioguanosine] ?
Result block: 0.779

Query block: Also O=C1CCC(N2C(=O)c3ccccc3C2=O)C(=O)N1 (stereo not drawn) [Thalidomide] ?
Result block: 1

Query block: Also Cc1ccnc(NS(=O)(=O)c2ccc(N)cc2)n1 [Sulfamerazine] ?
Result block: 0.998

Query block: Also N=C(N=C(N)N)N1CCOCC1 [Moroxidine hydrochloride] ?
Result block: 0.992

Query block: Also CC(CN(C)C)CN1c2ccccc2CCc2ccccc21 (stereo not drawn) [Trimipramine maleate salt] ?
Result block: 0.963

Query block: Also C[C@]12CCC(=O)C=C1CC[C@@H]1[C@@H]2[C@@H](O)C[C@@]2(C)[C@H]1CC[C@]2(O)C(=O)CO [Hydrocortisone] ?
Result block: 0.996

Query block: Also CC(=O)Nc1c(I)c(NC(C)=O)c(I)c(C(=O)O)c1I [Diatrizoic acid dihydrate] ?
Result block: 0.995

Query block: Also Cc1cnc(NC(=O)C2=C(O)c3ccccc3S(=O)(=O)N2C)s1 [Meloxicam] ?
Result block: 0.947

Query block: Also NC[C@H]1O[C@H](O[C@H]2[C@H](O)[C@@H](O[C@H]3O[C@H](CO)[C@@H](O)[C@H](N)[C@H]3O)[C@H](N)C[C@@H]2N)[C@H](N)[C@@H](O)[C@@H]1O [Kanamycin B] ?
Result block: 1.02

Query block: Also Cc1nc2ccccc2n1Cc1ccc(Cl)cc1 [Chlormidazole] ?
Result block: 0.833

Query block: Also CCCCCN(C)CCC(O)(P(=O)(O)O)P(=O)(O)O [Ibandronate sodium] ?
Result block: 1

Query block: Also NC1CCN(c2c(F)cc3c(=O)c(C(=O)O)cn(C4CC4)c3c2Cl)C1 (stereo not drawn) [Clinafloxacin] ?
Result block: 0.00725

Query block: Also CO[C@H]1/C=C/O[C@@]2(C)Oc3c(C)c(O)c4c(O)c(c5c(nc6cc(C)ccn65)c4c3C2=O)NC(=O)/C(C)=C\C=C\[C@H](C)[C@H](O)[C@@H](C)[C@@H](O)[C@@H](C)[C@H](OC(C)=O)[C@@H]1C [Rifaximin] ?
Result block: 0.0409

* * *

Test system: P. vulgatus RND KO
method description: growth AUC normalised to DMSO control (median) (fraction of control); higher = less growth inhibition, active = hit call of the paper
experimental context: 20 µM
Where a name gives a salt, the structure may show the parent alone.
Readings of growth AUC normalised to DMSO control for the listed compounds
Just the number.

>>> value_observed("CCN(CC)CCOC(=O)C1(C2CCCCC2)CCCCC1 [Dicyclomine hydrochloride]")
1

Shift focus to the following entry.
Query block: Report growth AUC normalised to DMSO control for CC(=O)OCC(=O)[C@@]12OC(C)(C)O[C@@H]1C[C@H]1[C@@H]3C[C@H](F)C4=CC(=O)C=C[C@]4(C)[C@@]3(F)[C@@H](O)C[C@@]12C [Fluocinonide] please.
Result block: 0.967

* * *

Tested on: S. enterica typhimurium tolC KO
method description: growth AUC normalised to DMSO control (median) (fraction of control); higher = less growth inhibition, active = hit call of the paper
experimental context: 20 µM
Where a name gives a salt, the structure may show the parent alone.
Readings of growth AUC normalised to DMSO control for the listed compounds
Just the number.

For orientation, consider the following solved cases.
>>> value_observed("CCN(CC)C(=O)Nc1ccc(OCC(O)CNC(C)(C)C)c(C(C)=O)c1 (stereo not given) [Celiprolol hydrochloride]")
0.994
>>> value_observed("CC1(C)S[C@@H]2[C@H](NC(=O)Cc3ccccc3)C(=O)N2[C@H]1C(=O)O [Benzylpenicillin sodium]")
0.0065
>>> value_observed("CCN(CC)C(=S)SSC(=S)N(CC)CC")
1
>>> value_observed("CCCNC(C)C(=O)Nc1ccccc1C (stereo not given) [Prilocaine hydrochloride]")
0.993
>>> value_observed("CC(C)[N+](C)(CCOC(=O)C1c2ccccc2Oc2ccccc21)C(C)C [Propantheline bromide]")
0.981
>>> value_observed("O=c1[nH]cnc2c1ncn2[C@@H]1O[C@H](CO)[C@@H](O)[C@H]1O")
1.01
>>> value_observed("COc1c(O[C@@H]2O[C@H](CO)[C@@H](O)[C@H](O)[C@H]2O)cc2c(c1OC)-c1ccc(SC)c(=O)cc1[C@@H](NC(C)=O)CC2 [Thiocolchicoside]")
1
>>> value_observed("O=C(N/N=C/c1ccc([N+](=O)[O-])o1)c1ccc(O)cc1 [Nifuroxazide]")
0.862

Query block: Report growth AUC normalised to DMSO control for CCN(CC)C(=O)/C(C#N)=C/c1cc(O)c(O)c([N+](=O)[O-])c1 please.
Result block: 1

Query block: Also O=C1c2cccc3c2[C@H](CCC3)CN1[C@@H]1CN2CCC1CC2 [Palonosetron hydrochloride] ?
Result block: 0.998

Query block: Also CNC(=C[N+](=O)[O-])NCCSCc1csc(CN(C)C)n1 ?
Result block: 0.989

* * *

Test system: Salmonella enterica typhimurium
method description: growth AUC normalised to DMSO control (fraction of control); higher = less growth inhibition, active = hit call of the paper
experimental context: 20 µM
Structures can show the parent of a compound that is named as a salt.
Readings of growth AUC normalised to DMSO control for the listed compounds
Just the number.

>>> value_observed("CC(C)NCC(O)c1cc(O)cc(O)c1 (centres undefined) [Metaproterenol sulfate]")
0.995
>>> value_observed("C#C[C@]1(O)CC[C@H]2[C@@H]3CCC4=Cc5oncc5C[C@]4(C)[C@H]3CC[C@@]21C [Danazol]")
0.994
>>> value_observed("CCOC(=O)c1ccc(OC(=O)CCCCCNC(=N)N)cc1 [Gabexate mesilate]")
0.993
>>> value_observed("CCc1c(C)[nH]c2c1C(=O)C(CN1CCOCC1)CC2 (centres undefined) [Molindone hydrochloride]")
1
>>> value_observed("CCCc1nn(C)c2c(=O)[nH]c(-c3cc(S(=O)(=O)N4CCN(C)CC4)ccc3OCC)nc12 [Sildenafil]")
1.02

Query block: Report growth AUC normalised to DMSO control for COc1ccc(Cl)cc1C(=O)NCCc1ccc(S(=O)(=O)NC(=O)NC2CCCCC2)cc1 [Glibenclamide] please.
Result block: 0.984

Query block: Also COCCOC(=O)C1=C(C)NC(C)=C(C(=O)OC/C=C/c2ccccc2)C1c1cccc([N+](=O)[O-])c1 (centres undefined) [Cilnidipine] ?
Result block: 1.01

Query block: Also Nc1c(Br)cc(Br)cc1CN[C@H]1CC[C@H](O)CC1 [Ambroxol hydrochloride] ?
Result block: 0.979

Query block: Also NC(=O)N/N=C/c1ccc([N+](=O)[O-])o1 [Nitrofural] ?
Result block: 0.713

Query block: Also CC(N)C12CC3CC(CC(C3)C1)C2 (centres undefined) [Rimantadine hydrochloride] ?
Result block: 0.99

Query block: Also NNC(=O)c1ccncc1 [Isoniazid] ?
Result block: 1.02

Query block: Also COc1ccc(NS(=O)(=O)c2ccc(N)cc2)nn1 [Sulfamethoxypyridazine] ?
Result block: 1.02

Query block: Also Cc1cc(C2CCCCC2)n(O)c(=O)c1 [Ciclopirox ethanolamine] ?
Result block: 1.01

Query block: Also CCn1cc(C(=O)O)c(=O)c2cc(F)c(N3CCN(C)CC3)cc21 [Pefloxacin] ?
Result block: 0.00601

* * *

Tested on: S. enterica typhimurium tolC KO
method description: growth AUC normalised to DMSO control (median) (fraction of control); higher = less growth inhibition, active = hit call of the paper
experimental context: 20 µM
Structures can show the parent of a compound that is named as a salt.
measurement kind: growth AUC normalised to DMSO control
Just the number.

Query block: Report growth AUC normalised to DMSO control for CCS(=O)(=O)CCn1c([N+](=O)[O-])cnc1C please.
Result block: 0.995

Query block: Also Nc1nc(=O)n([C@@H]2CS[C@H](CO)O2)cc1F [(-) Emtricitabine] ?
Result block: 0.993

Query block: Also CN(C)CCCSC(=N)N [Dimaprit dihydrochloride] ?
Result block: 1.01

Query block: Also CCN(CC)CCOC(=O)C(Cc1cccc2ccccc12)CC1CCCO1 (stereo not given) [Nafronyl oxalate] ?
Result block: 0.959

Query block: Also CC(=O)OC[C@H]1O[C@@H]([S-])[C@H](OC(C)=O)[C@@H](OC(C)=O)[C@@H]1OC(C)=O.CCP(CC)CC.[Au+] ?
Result block: 0.862
